Test system: HCT-15
*1 amine or outer side, *2 acyl side, *3 side chain or, on linkers, in order; H or OH if unused. Where a SMILES comes first, the peptide text is derived from it. Bridges are numbered along the chain shown (N, C = ends). Roman numbers before positions name the chains, in order. [ ]: non-standard residue; d: D form. Actinocin(9to1) = Cc1c2oc3c(C)ccc(C(=O)[*:1])c3nc-2c(C(=O)[*:2])c(N)c1=O; NMeV = CN[CH](C(=O)O)C(C)C; Sar = CNCC(=O)O
Please use condition met for GI50 under 20 µM and condition not met for everything else, ties included.

Given Cc1c2oc3c(C)ccc(C(=O)NC4C(=O)NC(C(C)O)C(=O)N5CCCC5C(=O)N(C)CC(=O)N(C)C(C(C)C)C(=O)OC4C)c3nc-2c(C(=O)NC2C(=O)NC(C(C)O)C(=O)N3CCCC3C(=O)N(C)CC(=O)N(C)C(C(C)C)C(=O)OC2C)c(N)c1=O (configuration not stated) (I: TTP[Sar][NMeV] / II: TTP[Sar][NMeV]; ester I:1-I:C, II:1-II:C; linker I:N-II:N via Actinocin(9to1); configuration not given here) , is recorded GI50 strictly lower than 20 µM? condition met

Decide: GI50 of C[N+](C)(C)c1ncnc2c1ncn2C1CC(O)C(CO)O1 (configuration not stated) strictly below 20 µM? condition not met

Is 20 µM strictly greater than the compound's reported GI50? compound: NCCCC(N/C=C1/N=C(c2ccccc2)OC1=O)C(=O)O (configuration not stated) condition not met

Lab note: GI50 threshold 20 µM. Does this compound come in strictly under it? CC(C)[C@H]1CO[C@@H]2O[C@H](C)CC(=O)N21 condition not met

Please determine if CN(C)NC(=O)/C(=C/c1ccc(Cl)cc1)NC(=O)c1ccccc1 is below 20 µM in terms of GI50. condition not met

Please determine if O=C(CCC(NC(=O)OCc1ccccc1)C(=O)OCc1ccccc1)Nc1cccc(OCc2ccccc2)c1 (configuration not stated) is below 20 µM in terms of GI50. condition met

I wonder whether Cc1c(Cl)cc(C(C)(C)C)c(O)c1Cc1c(C)c(Cl)cc(C(C)(C)C)c1O has GI50 below 20 µM. Can you tell? condition met

Determine whether this compound shows GI50 lower than 20 µM (ties excluded): Cc1ccc(C(=O)C(C)N)cc1 (configuration not stated) condition not met

Is it true that GI50 reported for CC1(C)[C@H](C(=O)O)N2C(=O)[C@@H](NS(=O)(=O)c3ccc([N+](=O)[O-])cc3)[C@H]2S1(=O)=O is less than 20 µM? condition not met

For COc1cc2c(cc1OCc1ccccc1)NC(=O)[C@@H]1CCCN1C2=O , is the recorded GI50 below the cut-off of 20 µM? condition not met

Record COc1ccc(/C=C/C(=O)c2cc(CN(C)C)c(O)c(CN(C)C)c2)cc1 : is its GI50 strictly below 20 µM? condition not met

Would you kindly verify if GI50 of CCCCCCCCCCCCn1[nH]c(C)c(C(=S)SCCCCCCCC)c1=O is strictly less than 20 µM? condition not met

Problem: For the compound COc1ccc2c(c1)OC[C@@H]1c3cc(O)c(OCc4ccccc4)cc3O[C@H]21 , is GI50 under 20 µM? condition not met

Criterion: GI50 strictly below 20 µM. Is it met by COC(=O)C1c2cc3c(c(O)c2C(O)CC1(C)O)C(=O)c1c(O)cc2c(c1C3=O)OC1OC2(C)C(O)C(N(C)C)C1O (configuration not stated) ? condition met

Criterion: GI50 strictly below 20 µM. Is it met by COC(=O)C1CCC(=O)C(Sc2ccccc2)C1 (configuration not stated) ? condition not met

Quick check: GI50 of Cc1ccc(NC(=O)CCC(CC(=O)C(C)(C)C)=NNC(=O)C(=O)NN)cc1C under 20 µM? condition not met

Is 20 µM strictly greater than the compound's reported GI50? compound: O=C1O[C@H]2C3C4CCC(C4[C@@H]2I)[C@H]13 (some centres not stated) condition not met

Provenance of the data: ChEMBL document CHEMBL1201862
